Values from patent US20100298141A1

Assignment: determine reported Plant response rating, Barnyardgrass for the given compounds.
System: barnyardgrass
Test: Test C flooded paddy test
Assay type: in vivo, Echinochloa crus-galli
Details: Flood, 62 g ai/ha; scale 0 to 100, 0 no effect, 100 complete control; 13 to 15 days
Answers are plain numbers.

Please review the following examples before continuing.
> print(dat)
                                   compound  number
1  Cn1nc(C(F)(F)F)c(C(Cl)S(=O)(=O)c2cccc[n+]2[O-])c1OCC(F)(F)F (racemic) [Compound 36]      10
2  Cc1cc[n+]([O-])c([S+]([O-])Cc2c(C(F)(F)F)nn(C)c2OCC(F)(F)F)c1 (racemic) [Compound 30]       0
3  Cn1nc(C(F)(F)F)c(CS(=O)(=O)c2cccc[n+]2[O-])c1OC(F)F [Compound 4]      35
4  CC(c1c(C(F)(F)F)nn(C)c1OCC(F)(F)F)S(=O)(=O)c1cccc[n+]1[O-] (racemic) [Compound 33]      30
5  Cn1nc(C(F)(F)F)c(C(Cl)S(=O)(=O)c2cccc[n+]2[O-])c1Cl (stereo not shown) [Compound 12]      50
6  Cc1cc[n+]([O-])c(S(=O)(=O)C(Cl)c2c(C(F)(F)F)nn(CC(F)(F)F)c2Cl)c1 (stereo not shown) [Compound 56]       0
7  Cn1nc(C(F)(F)F)c(CS(=O)(=O)c2ccc(Cl)c[n+]2[O-])c1Cl [Compound 18]      30
8  O=S(=O)(Cc1c(C(F)(F)F)nn(CC(F)(F)F)c1Cl)c1ccc(Cl)c[n+]1[O-] [Compound 50]       0

For each listed entry, give its Plant response rating, Barnyardgrass.
1. Cc1cc[n+]([O-])c(S(=O)(=O)C(C)c2c(C(F)(F)F)nn(C)c2Cl)c1 (racemic) [Compound 14]
2. Cc1cc[n+]([O-])c(S(=O)(=O)C(Cl)c2c(C(F)(F)F)nn(C)c2OCC(F)(F)F)c1 (racemic) [Compound 37]
3. Cc1cc[n+]([O-])c(S(=O)(=O)Cc2c(C(F)(F)F)nn(CC(F)(F)F)c2Cl)c1 [Compound 49]
4. Cn1nc(C(F)(F)F)c(C[S+]([O-])c2cc(Cl)cc[n+]2[O-])c1OC(F)F (stereo not shown) [Compound 57]
5. CC(c1c(C(F)(F)F)nn(CC(F)(F)F)c1Cl)[S+]([O-])c1cccc[n+]1[O-] (stereo not shown) [Compound 46]

Reply |
1. 0
2. 10
3. 0
4. 15
5. 10
